Molecular target: T1, human TIGIT-Fc (human, UniProt Q495A1 22-141, limits assumed)
T1 construct: not shown: Fc; not described
T1 sequence (looked up): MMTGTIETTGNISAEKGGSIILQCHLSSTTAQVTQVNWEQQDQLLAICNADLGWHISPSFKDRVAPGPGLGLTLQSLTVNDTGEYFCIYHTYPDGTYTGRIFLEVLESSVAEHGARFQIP
Assay: CD155 competition ELISA, single point; note: test concentration or dose not given here
RECORDED_METRIC: OD (450 nm) (OD)
Please respond with the number in OD and leave the unit unwritten.

TIGIT-SC19 (Fc fusion, VHH-Fc) VHH: EVQLVESGGGLVQPGGSLRLSCAASGRTYDAMGWFRQAPGKEREWVASVLRGGYTWYADSVKGRFTISADNSKNTAYLQMNSLKPEDTAVYYCARDVDYRFDSWGQGTLVTVSS: 0.746

Next binder, OD (450 nm) to be filled in.
I am curious: what OD (450 nm) value has been reported for TIGIT-SC136 (Fc fusion, VHH-Fc) VHH: EVQLVESGGGLVQPGGSLRLSCAASGFTLENNMMGWFRQAPGKEREFVAAISRSGTLKAYADSVKGRFTISADNSKNTAYLQMNSLKPEDTAVYYCARGGELTTFYFGYWGQGTLVTVSS ? 0.571

The measured values listed here are drawn from patent US20260184782A1.
